Recorded growth inhibition by entry
test.details: NCI Yeast Anticancer Drug Screen. Data for the rad50 strain (AID 155);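 further: 0% = growth of vehicle-only cultures of the same strain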
applied.conditions: S. cerevisiae rad50 strain growth inhibition; at 50.0 µM; hits give high values
This is part of a sample that, as a whole, favours compounds with a hit. Of some 79,000 tested, about 15% had one in any assay. Where a SMILES comes first, the peptide text is derived from it. [ ]: non-standard residue; d: D form. The star is where a group is joined. Ac5c = NC1(C(=O)O)CCCC1; Cbz = O=C(OCc1ccccc1)*

molecule	growth inhibition / %
CC(=O)Oc1cc(OC(C)=O)c2c(c1C)CC[C@@H]1[C@@H]2CC[C@]2(C)[C@@H](OC(C)=O)CC[C@@H]12	18.1
O=c1c2ccccc2n2c(-c3ccc(O)cc3)nnc2n1-c1ccccc1	-30.3
CCCCCCCCC(=O)OCC(=O)c1ccc(-c2ccccc2)cc1	10.8
COc1ccc2cc1Oc1ccc(cc1)CC1=NCCc3cc(OC)c(OC)c(c31)Oc1cc3c(cc1OC)CCN(C)C3C2 (stereo not drawn)	-8.75
C=C(CN(CC)CC)C1(c2ccccc2)CC2(CCCC2)C(=O)O1 (stereo not drawn)	20.9
COC(=O)c1ncn(C(C(=O)OC)C(=O)OC)c1O	-5.6
O=C(O)c1c(Cl)c(Cl)c(Cl)c(Cl)c1C(=O)Nc1cccc(C(F)(F)F)c1	-9.55
O=C(O)CNC(=O)C1(NC(=O)CNC(=O)OCc2ccccc2)CCCC1 (Cbz-Gly-[Ac5c]-Gly-OH)	4.7
CCCCCCOC(=O)c1cccc(C)c1	7.15
CCOC(=O)c1nnsc1NC(=O)Nc1ccc(Cc2ccc(NC(=O)Nc3snnc3C(=O)OCC)cc2)cc1	-14.3
CC(C(=O)O)C(C)C(=O)Nc1ccccc1 (stereo not drawn)	33.9
O=c1c2ccccc2nc(-c2ccccc2Cl)n1NCC1(O)OCC(O)C(O)C1O (stereo not drawn)	12
C=C(C)CCC[C@@H](C)C1CCC2(C)[C@@H]3CCC4C(C)(C)[C@@H](O)CC[C@@]45C[C@@]35CC[C@]12C (stereo partly drawn)	31.1
O=S1(=O)C(c2ccccc2Cl)=C(O)C(O)=C1c1ccccc1Cl	-0.6
O=C(OC1CC2CCC1C2)c1cc([N+](=O)[O-])cc([N+](=O)[O-])c1 (stereo not drawn)	8.55
O=C1/C(=C/c2ccc(Cl)cc2)CCC1CCN1CCOCC1 (stereo not drawn)	46.9
Cc1cc(N2CCCCC2)nc2ccccc12	4.95
CN(C)CC1CCc2c(n(C)c3ccccc23)C1=O (stereo not drawn)	-2.55
CN(C)COC(=S)SCC(=O)O	8.4
O=C1C2=C(OCCO2)C(=O)C2=C1OCO2	12.4
Clc1ccc(/C=N/c2ccccn2)cc1	-37.2
[O-]/[N+]1=[N+](\[O-])c2ccccc2CCCc2ccccc21	-7.35
CCN(CC)CCCC(C)n1c(SC)nc2cc(Cl)ccc21 (stereo not drawn)	-11.5
COC(=O)C1=CC2C(C1)C1CC2C(OC(C)=O)C1N(C)C (stereo not drawn)	15.8
CC(=O)Nc1c(CCCCc2ccccc2)[nH]c(=O)[nH]c1=O	1.8
O=C(CC(=O)c1ccc(Cl)cc1)c1ccc(Cl)cc1	12.9
CC(=O)Nc1ccc(OC2=CCN(C)CC2)cc1	0.75
CC(C)(C#CCOC(=O)c1ccc([N+](=O)[O-])cc1)OC(=O)c1ccc([N+](=O)[O-])cc1	9.25
CCCc1ccc(OCC(=O)O)c(OC)c1	-2.45
O=C(Cn1c2c(c3ccccc31)CCCC2)NC1CCCCC1	2.6
OCCSC(SCCO)=C(SCCO)SCCO	9.85
NCCSCc1ccccc1Cl	-10.3
NCC(=O)NC1(C(=O)NCC(=O)O)CCCC1	-2.45
O=c1[nH]c2cc3[nH]c4ncccc4c(=O)c3cc2[nH]1	-3.7
O=c1onc2n1-c1cc(Cl)ccc1C(=S)N1CSCC21 (stereo not drawn)	1
Cc1ncc(-c2ccccc2)o1	-20.2
Cc1nc(N)sc1C	12.7
S=C(Sc1nc2ccccc2s1)Sc1nc2ccccc2s1	72
Cc1cccc2c1c1ccc3c(c1n2C)C(=O)C=CC3=O	5.05
O=C(O)c1ccc(C(=O)c2ccc(Cl)cc2)cc1	31.9
CCCCCCCCCCCC1=c2o[nH]c2=C(c2ccccn2)C(=O)C1=O	-15.2
Clc1c2ncccc2cc2n[nH]nc12	14.9
OCC(O)C(O)C(O)C(SCc1ccccc1)SCc1ccccc1 (stereo not drawn)	3.9
CC(C)(C)OC(=O)N1CC(C)(C)N2C(=O)C3(CCCO3)C12 (stereo not drawn)	-4.3
CSCCNC(=O)CS(=O)(=O)c1ccc(C)cc1	3.35
CCCCCCCCCCCCCCCCCCCCCCBr	4.95
CC(=O)Nc1ccccc1O	-4.75
COC(=O)CCSc1ccccc1	0.55
